# assay-procedure: yeast display, Sf9 membrane polyspecificity reagent, FACS + sequencing; frameworks hold sequencing errors
measure: polyreactivity (PSR sort gate)

Illustrative cases are given below, each with its answer.
input_sequence=QVQLVESGGGLVQAGGILRLSCAASGRIFSYYAKGWYRQAPGKERELVAAITRGGSTNYADSVKGRFTISRDNAKNSVYLQMNSLKPEDTAVYYFAVRGGYTGPTYNYWGQGTQVTVSS value_observed="high polyreactivity"
input_sequence=QVHLVESGGGLVQAGGSLRLRCAASGSISGRYAMGWYRQAPGKERELVAAISWIGGSTYYADSVKGRFTISRDNAKNTVYLQMNSLKPEDTAVYYCNVSIDTRTHPLLVVFYGYDYWGQGTQVSVSS value_observed="low polyreactivity"
input_sequence=QVQHVESGGGLVQAGGSLRLSCAASGSIFLVYAMGWYRLAPGKERELVAAISNSGSTNYADSVKGRFTISRDNAKNTVYLQMNSLKPEDTAVYYCAKDSLVDHVGGYDYWGHGTQVTVSS value_observed="low polyreactivity"
input_sequence=QFQLVESGGGLYQAGGSLRLSCASSGITLYFYAMGWYRQAPGKVRELVAAISRGGRTYYADSVKGRFTISRDNAKNTVYLQMNSLKPEDTAVYYCAARYTSEYSAFDYWGQGTQVTVSS value_observed="low polyreactivity"

Hi, could you look up polyreactivity (PSR sort gate) for each item in my list?
1. QVQLVESGGGLVQAGGSLRLSCAASGFIFRYYAMGWYRQAPGKERELVAAITSDGSTYYADSVKGRFTISRDNAKNTVYLQMNSLKPEDTAVYYCARSVYRFYLKTRASDYWGQGTQETVSS
2. QVQLVESGGGLVQAGGSLRLSCAASGSNFYYKAMGWYRQAPGKERELVAAITSGDSTNYADSVKGRFTISRDNAKNTVYLQMNSLKPEDTAVYYCAADYLAALTYYRTYDYWGQGTQVTVSS
3. QVQLVESGGGVVQAGGSLRLSCAASGRTFSYNALGWNRQAPGKEREVVAAINGDGGSTYYADSVKGRFTSSRDNAKNTVYLQMNSLKPEDTAVYYCNRRGIYRYGYWGQGTEVTVSS

Reply |
high polyreactivity
low polyreactivity
high polyreactivity

###

# assay-procedure: yeast display, Sf9 membrane polyspecificity reagent, FACS + sequencing; frameworks hold sequencing errors
measure: polyreactivity (PSR sort gate)

input_sequence=QLQLVESGRGLVQAGGSLRLRCAASVSTFGANAMGWYRQAPGKESELVATISSGGRTYYADSVKGRFTISRDNAKNTVYLQMNSLKPEDTAVYYCNAGADYTYVYISVYVLYDEWGQGTQVTVSS value_observed="low polyreactivity"
input_sequence=QVQLVESGGGLVQAGGSLRLSCAASGSIFDVYTMGWYRQAPGKVRELVAAINTGGGSTYYADSVMGRFTISRDNAKNTVYLEMNSLKPEDTAVYYCAASVYHYGPLYYWGEGTQVTVSS value_observed="low polyreactivity"
input_sequence=QVQLVESGGGLVQAGGSLRLSCAASGSIFDYYAMGWYRQAPGKERELVAAISNGRTTNYADSVKGRFTISRDNAKNTVYLQMNSLKPEDTAVYYCNADSALYDKAVIYSEYDYWGQGTQVTVSS value_observed="low polyreactivity"

###

# assay-procedure: yeast display, Sf9 membrane polyspecificity reagent, FACS + sequencing; frameworks hold sequencing errors
measure: polyreactivity (PSR sort gate)

input_sequence=QVQLVESGGGLVQAGGSLRLICAASGRIFRQNAMGWYRQEPGKERELVASISSGGNTYYADSVKGRFTISRDNAKNTVYLEMNSLKPEDTAVYYCAAAKQRYYRWWTTPGYDYWGQGTQVTVSS value_observed="low polyreactivity"
input_sequence=QVQLVESGGGFVQAGGSLRLSCAASGRIFGQYAMGWYRQAPGKERELVAAISQRGGSTYYADSVKGRFTISRDNAKNTVYLQMNSLKPEDTAVYYCAAPPRLIKSYGYNYWGQGTQVTVSS value_observed="high polyreactivity"
input_sequence=QLQLVESGGGLVQAGGSLRLSCAASGSTFYLYDLGWYIQAPGKESELVAAITSSGGSTYYADSVKGRFTISLDNAKNTVYLQMTSLKPEDTAVYYCAARYRGWVYSYDYWGQGTQVTVSS value_observed="low polyreactivity"
input_sequence=QVQLVESGGGLVQAGGSLRLSCAASGSIFTAYAMGWYRQAPGKERELVAAITTSGDSTYYADSVKGRFTISRDNAKNTVYLQMNSLKPEDTAVYYCAAEYYSYRITTYDYWGQGTQVTVSS value_observed="high polyreactivity"
input_sequence=QVQLVESGGGLVQAGGILRLSCAACGITVTSYAMGWYRQAPGKERELVAVITGTGGITYYADSVKGRFTISRDNAKNTVYLQMNSLKPEDTAVYYCAAELELREYDYWGQGNQVTVSS value_observed="high polyreactivity"
input_sequence=QVQLVESGGGLVQAGGSLRLSCAASGIIFHYYAMGWYRQAPGKERDLVAAISGSGGSTYYADSVKGRFTISRDNAKNTVFLQMNSLKPEDTAVYYCAAILWGGGGYWGQGTQVTVSS value_observed="high polyreactivity"

Hi, could you look up polyreactivity (PSR sort gate) for each item in my list?
1. QVQLVETGGGLVQAGGSLRLSCAPSGSTFNSNVMGWYRQAPGKERELLAAISRSGGNTYYADSVKGRFTISRDNAKNTVYLQMNSLKQEDTAVYYCNVVFFSYYHGAYRGYDYWGQGTQVTVSS
2. QVQLVESGGGLVQARGSLRLSCAASGFTFYFYAMGWYRQATGKETELVAAISRSGSRTYYADSVKGRFTISRDNAKNTVYLQMNSLKPVDTAVYYCARVRPRGLYFVLHYDYWGQGTQVTVSS
3. QVHLVEAGVGLVQAGGSLRVSCAASGFTFCRYAMVWYRQAPGKERELVAAIRYSGSSTYYADSVKGRFTISRDNAKNTVYLQMNSLKPEDTAVYYCAKRYYGNDYWGQGTQVTVSS
4. QVQLVESGGGLDQAGGSLRLSCAASVRIFEENAMGWSRQAPGKEREFVAVITSSGGGTYYADSVKGRFTISRDKAKNTVYLQMNSLKPEDTAVYYCARADKLHTRGWGRWGSGSYSWGQGTQVTVSS

Reply |
["high polyreactivity", "high polyreactivity", "high polyreactivity", "low polyreactivity"]

Ask | Query: polyreactivity (PSR sort gate); subject: `QVHLVESGGGLVQAGGSLRLSCAASGYVMGWYRQAPGKERELVAAITRGTSTYYADSVKGRFTISRDNAKNTVYLQMNSLKPEDTAVYYCAARTTSGEWPPGNIGTYLYDYWGQGTQVTVSS`
Reply | low polyreactivity
